Would you mind telling me the reported relative viability of each entry?
Test system: NCI-H23
Test: relative viability (nuclei count vs DMSO), 5 days (fraction); higher = more cells survive
Conditions: first compound 0.08 µM
Numbers only.

{"Molecule": "O=c1[nH]c2ccccc2n1C1CCN(CCCC(c2ccc(F)cc2)c2ccc(F)cc2)CC1 [Pimozide] + CS(=O)(=O)CCNCc1ccc(-c2ccc3ncnc(Nc4ccc(OCc5cccc(F)c5)c(Cl)c4)c3c2)o1 [Lapatinib] (partner 2 µM)", "relative viability": 0.938}

Value of measured relative viability for the entry Cc1cnc(-c2cnc(NCCNc3ccc(C#N)cn3)nc2-c2ccc(Cl)cc2Cl)[nH]1 + C[C@]1(O)C[C@@H](c2nc(-c3ccc4ccc(-c5ccccc5)nc4c3)c3c(N)nccn32)C1 [Linsitinib] (partner 1 µM) : 0.674

====

Would you mind telling me the reported relative viability of each entry?
Test system: NCI-H460
Test: relative viability (nuclei count vs DMSO), 5 days (fraction); higher = more cells survive
Settings: first compound 4 µM
Answers are plain numbers.

{"Molecule": "Cc1sc2c(c1C)C(c1ccc(Cl)cc1)=N[C@@H](CC(=O)OC(C)(C)C)c1nnc(C)n1-2 [JQ1] + COc1cc2c(Oc3ccc(NC(=O)C4(C(=O)Nc5ccc(F)cc5)CC4)cc3F)ccnc2cc1OCCCN1CCOCC1 [Foretinib] (partner 0.25 µM)", "relative viability": 0.112}
{"Molecule": "Cc1sc2c(c1C)C(c1ccc(Cl)cc1)=N[C@@H](CC(=O)OC(C)(C)C)c1nnc(C)n1-2 [JQ1] + Cc1nc(NC(=O)N2CCC[C@H]2C(N)=O)sc1-c1ccnc(C(C)(C)C(F)(F)F)c1 [Alpelisib] (partner 2 µM)", "relative viability": 0.0414}
{"Molecule": "Cc1sc2c(c1C)C(c1ccc(Cl)cc1)=N[C@@H](CC(=O)OC(C)(C)C)c1nnc(C)n1-2 [JQ1] + CS(=O)(=O)N1CCN(Cc2cc3nc(-c4cccc5[nH]ncc45)nc(N4CCOCC4)c3s2)CC1 [Pictilisib] (partner 1 µM)", "relative viability": 0.135}
{"Molecule": "Cc1sc2c(c1C)C(c1ccc(Cl)cc1)=N[C@@H](CC(=O)OC(C)(C)C)c1nnc(C)n1-2 [JQ1] + CCNC(=O)c1noc(-c2cc(C(C)C)c(O)cc2O)c1-c1ccc(CN2CCOCC2)cc1 [Luminespib] (partner 0.01 µM)", "relative viability": 0.0328}
{"Molecule": "Cc1sc2c(c1C)C(c1ccc(Cl)cc1)=N[C@@H](CC(=O)OC(C)(C)C)c1nnc(C)n1-2 [JQ1] + Cc1nc(Nc2ncc(C(=O)Nc3c(C)cccc3Cl)s2)cc(N2CCN(CCO)CC2)n1 [Dasatinib] (partner 0.075 µM)", "relative viability": 0.075}

Required: relative viability, one value per molecule below.
1. Cc1sc2c(c1C)C(c1ccc(Cl)cc1)=N[C@@H](CC(=O)OC(C)(C)C)c1nnc(C)n1-2 [JQ1] + O=C(c1cc(Cc2n[nH]c(=O)c3ccccc23)ccc1F)N1CCN(C(=O)C2CC2)CC1 [Olaparib] (partner 8 µM)
2. Cc1sc2c(c1C)C(c1ccc(Cl)cc1)=N[C@@H](CC(=O)OC(C)(C)C)c1nnc(C)n1-2 [JQ1] + CS(=O)(=O)CCNCc1ccc(-c2ccc3ncnc(Nc4ccc(OCc5cccc(F)c5)c(Cl)c4)c3c2)o1 [Lapatinib] (partner 2 µM)
3. Cc1sc2c(c1C)C(c1ccc(Cl)cc1)=N[C@@H](CC(=O)OC(C)(C)C)c1nnc(C)n1-2 [JQ1] + CC(=O)Nc1cccc(-n2c(=O)n(C3CC3)c(=O)c3c(Nc4ccc(I)cc4F)n(C)c(=O)c(C)c32)c1 [Trametinib] (partner 0.02 µM)
4. Cc1sc2c(c1C)C(c1ccc(Cl)cc1)=N[C@@H](CC(=O)OC(C)(C)C)c1nnc(C)n1-2 [JQ1] + Nc1ncn([C@H]2C[C@H](O)[C@@H](CO)O2)c(=O)n1 [Decitabine] (partner 2 µM)

0.0676
0.169
0.0297
0.226

Value of measured relative viability for the entry Cc1sc2c(c1C)C(c1ccc(Cl)cc1)=N[C@@H](CC(=O)OC(C)(C)C)c1nnc(C)n1-2 [JQ1] + N=C(N)NC(=N)NCCc1ccccc1 [Phenformin] (partner 250 µM) : 0.041

====

Test system: NCI-H838
Test: relative viability (nuclei count vs DMSO), 5 days (fraction); higher = more cells survive
Settings: first compound 0.006325 µM
Hi! Just check whether relative viability is below 0.2. Below gives satisfied, equal or above gives not satisfied.

Example entries begin here.
{"Molecule": "CC(=O)O[C@@]12CO[C@@H]1C[C@H](O)[C@@]1(C)C(=O)[C@H](O)C3=C(C)[C@@H](OC(=O)[C@H](O)[C@@H](NC(=O)OC(C)(C)C)c4ccccc4)C[C@@](O)([C@@H](OC(=O)c4ccccc4)[C@H]21)C3(C)C [Docetaxel] + CS(=O)(=O)N1CCN(Cc2cc3nc(-c4cccc5[nH]ncc45)nc(N4CCOCC4)c3s2)CC1 [Pictilisib] (partner 1 µM)", "Assigned Label": "satisfied"}
{"Molecule": "CC(=O)O[C@@]12CO[C@@H]1C[C@H](O)[C@@]1(C)C(=O)[C@H](O)C3=C(C)[C@@H](OC(=O)[C@H](O)[C@@H](NC(=O)OC(C)(C)C)c4ccccc4)C[C@@](O)([C@@H](OC(=O)c4ccccc4)[C@H]21)C3(C)C [Docetaxel] + Cc1nc(Nc2ncc(C(=O)Nc3c(C)cccc3Cl)s2)cc(N2CCN(CCO)CC2)n1 [Dasatinib] (partner 0.075 µM)", "Assigned Label": "not satisfied"}
{"Molecule": "CC(=O)O[C@@]12CO[C@@H]1C[C@H](O)[C@@]1(C)C(=O)[C@H](O)C3=C(C)[C@@H](OC(=O)[C@H](O)[C@@H](NC(=O)OC(C)(C)C)c4ccccc4)C[C@@](O)([C@@H](OC(=O)c4ccccc4)[C@H]21)C3(C)C [Docetaxel] + NC(=O)Nc1cc(-c2cccc(F)c2)sc1C(=O)N[C@H]1CCCNC1 [AZD7762] (partner 0.2 µM)", "Assigned Label": "not satisfied"}
{"Molecule": "CC(=O)O[C@@]12CO[C@@H]1C[C@H](O)[C@@]1(C)C(=O)[C@H](O)C3=C(C)[C@@H](OC(=O)[C@H](O)[C@@H](NC(=O)OC(C)(C)C)c4ccccc4)C[C@@](O)([C@@H](OC(=O)c4ccccc4)[C@H]21)C3(C)C [Docetaxel] + Nc1nc2[nH]cc(CCc3ccc(C(=O)N[C@@H](CCC(=O)O)C(=O)O)cc3)c2c(=O)[nH]1 [Pemetrexed] (partner 0.2 µM)", "Assigned Label": "satisfied"}
{"Molecule": "CC(=O)O[C@@]12CO[C@@H]1C[C@H](O)[C@@]1(C)C(=O)[C@H](O)C3=C(C)[C@@H](OC(=O)[C@H](O)[C@@H](NC(=O)OC(C)(C)C)c4ccccc4)C[C@@](O)([C@@H](OC(=O)c4ccccc4)[C@H]21)C3(C)C [Docetaxel] + CC1(C)CCC(c2ccc(Cl)cc2)=C(CN2CCN(c3ccc(C(=O)NS(=O)(=O)c4ccc(N[C@H](CCN5CCOCC5)CSc5ccccc5)c(S(=O)(=O)C(F)(F)F)c4)cc3)CC2)C1 [Navitoclax] (partner 0.5 µM)", "Assigned Label": "satisfied"}

Is 0.2 strictly greater than the molecule's reported relative viability? molecule: CC(=O)O[C@@]12CO[C@@H]1C[C@H](O)[C@@]1(C)C(=O)[C@H](O)C3=C(C)[C@@H](OC(=O)[C@H](O)[C@@H](NC(=O)OC(C)(C)C)c4ccccc4)C[C@@](O)([C@@H](OC(=O)c4ccccc4)[C@H]21)C3(C)C [Docetaxel] + N=C(N)NC(=N)NCCc1ccccc1 [Phenformin] (partner 250 µM) satisfied

Is 0.2 strictly greater than the molecule's reported relative viability? molecule: CC(=O)O[C@@]12CO[C@@H]1C[C@H](O)[C@@]1(C)C(=O)[C@H](O)C3=C(C)[C@@H](OC(=O)[C@H](O)[C@@H](NC(=O)OC(C)(C)C)c4ccccc4)C[C@@](O)([C@@H](OC(=O)c4ccccc4)[C@H]21)C3(C)C [Docetaxel] + Nc1ncn([C@H]2C[C@H](O)[C@@H](CO)O2)c(=O)n1 [Decitabine] (partner 2 µM) satisfied

====

System: NCI-H727
Test: relative viability (nuclei count vs DMSO), 5 days (fraction); higher = more cells survive
Details: first compound 0.5 µM
Quantity: relative viability
One number for each entry.

Required: relative viability, one value per compound below.
1. Nc1ccn([C@@H]2O[C@H](CO)[C@@H](O)[C@@H]2O)c(=O)n1 [Cytarabine] + Cc1cc(Nc2cc(N3CCN(C)CC3)nc(Sc3ccc(NC(=O)C4CC4)cc3)n2)n[nH]1 [Tozasertib] (partner 0.1 µM)
2. Nc1ccn([C@@H]2O[C@H](CO)[C@@H](O)[C@@H]2O)c(=O)n1 [Cytarabine] + O=C(c1cc(Cc2n[nH]c(=O)c3ccccc23)ccc1F)N1CCN(C(=O)C2CC2)CC1 [Olaparib] (partner 8 µM)

0.463
0.566
